Test Summary: NCI Yeast Anticancer Drug Screen. Data for the cln2 rad14 strain (AID 165);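 note: 0% = growth equal to vehicle treated cultures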
Measurement Setup: S. cerevisiae cln2 rad14 strain, at 50.0 µM, active compounds read high
The panel holds about 79,000 compounds, 15% with a hit somewhere; the sample as a whole holds those more often.
Would you mind sorting the entries by growth inhibition according to these classes? range 1: < -30%; range 2: ≥ -30% and < 10%; range 3: ≥ 10%

These recorded examples may help you get a feel for the data.
Asked: Would you mind sorting C=CC(C)(C)[C@@]12CC3C(=O)N[C@@H](Cc4ccccc4)C(=O)N3[C@@H]1N(C(C)=O)c1ccccc12 (stereo partly specified) into the appropriate category?
Given back: range 3

Asked: Likewise for `CCOC(=O)C(NC(N)=O)C(=O)OCC` ?
Given back: range 1

Asked: Likewise for `CCOc1c(/C=C\c2cc(/C=C/c3cccc(OC)c3OCC)c([N+](=O)[O-])cc2[N+](=O)[O-])cccc1OC` ?
Given back: range 1

Asked: Likewise for C=Cc1ccc(OC2OC(CO)C(OC3OC(CO)C(O)C(O)C3O)C(O)C2O)cc1 (stereo unspecified) ?
Given back: range 1

Asked: Likewise for CC(=O)OCC(=O)C1(O)CCC2C3CCC4=CC(=O)CCC4(C)C3(SC#N)CC(=O)C21C (stereo unspecified) ?
Given back: range 3

***
Asked: Would you mind sorting `Cc1ccc2ccccc2c1Cc1c(C=O)[nH]c(=S)[nH]c1=O` into the appropriate category?
Given back: range 3

Asked: Likewise for `CCCSc1ncnc2c1ncn2COC(=O)NC` ?
Given back: range 2

Asked: Likewise for `Cn1c(=O)c2ccccc2c2cc([N+](=O)[O-])ccc21` ?
Given back: range 2

Asked: Likewise for `CCCCCCCC(=O)OCC(COC(=O)CCCCCCC)OC(=O)CCCCCCC` ?
Given back: range 1

Asked: Likewise for `O=C(O)c1cc(C(=O)O)c(-c2ccccc2)c(-c2ccccc2)c1` ?
Given back: range 2

Asked: Likewise for CC(=O)N1Cc2c(nc[nH]c2=O)C1C (stereo unspecified) ?
Given back: range 3

----------
Test Summary: NCI Yeast Anticancer Drug Screen. Data for the sgs1 mgt1 strain (AID 161);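 note: 0% = growth of cultures given vehicle only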
Measurement Setup: S. cerevisiae sgs1 mgt1 strain, at 50.0 µM, active compounds read high
The panel holds about 79,000 compounds, 15% with a hit somewhere; the sample as a whole holds those more often.
Quantity Kind: growth inhibition (%)
One number for each entry, in %.

Consider the reported growth inhibition for these molecules:
Asked: I would be grateful if you could share the reported growth inhibition for `CC(C)=C1C(=O)C[C@]2(C)C[C@H]3O[C@]3(C)CC[C@@H]3O[C@@]3(C)CC[C@@H]12` .
Given back: 12.6

Asked: Likewise for `O=C1C=C(Nc2nc(O)cc(=O)[nH]2)c2ccccc2C1=O` ?
Given back: 1.15

Asked: Likewise for `CN(C)c1ccc(N=Nc2ccc3nc[nH]c3c2)cc1` ?
Given back: 42

Asked: Likewise for CC1=NN(C(=O)CC(=O)Nc2ccccc2Cl)C(=O)C1N=Nc1ccc(C(=O)O)cc1 (stereo unspecified) ?
Given back: 6.75

Batch request: growth inhibition per item, same order as input.
1. c1ccc2c(c1)CCOC2
2. COC1N(c2ccccc2)CCN1c1ccccc1

Given back:
1: 3.45; 2: -23.2

Batch request: growth inhibition per item, same order as input.
1. COc1ccc2ncc(COC(=O)NC3CCCCC3)c(COC(=O)NC3CCCCC3)c2c1
2. CCCCCCCCCCCCCCCOc1ccc2ccccc2c1
3. Oc1ccccc1C=Nc1ccc(Cl)cc1

Given back:
[24.4, -5.8, -5.5]

Batch request: growth inhibition per item, same order as input.
1. CCN(CC)CCC1(C(N)=O)Cc2ccccc2N(CC)c2ccccc21 (stereo unspecified)
2. CS(=O)(=O)OCc1nnn(-c2ccccc2)c1COS(C)(=O)=O

Given back:
1: 8.7; 2: -3.5

----------
Test Summary: NCI Yeast Anticancer Drug Screen. Data for the sgs1 mgt1 strain (AID 161);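 note: 0% = growth of cultures given vehicle only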
Measurement Setup: S. cerevisiae sgs1 mgt1 strain, at 50.0 µM
This is part of a sample that, as a whole, favours compounds with a hit. Of some 79,000 tested, about 15% had one in any assay. Calls of active or inactive are those of the source. No stated cut-off is given here; in the data, active means growth inhibition above about 70%; inactive means the rest. Where a SMILES comes first, the peptide text is derived from it.
Entry note: the call must match one of t = active, f = inactive

These recorded examples may help you get a feel for the data.
Asked: What did the test return for `CN(C)c1cccc(/C=C(\C#N)c2ccccc2)c1` ?
Given back: f

Asked: Likewise for `COc1cc(Cc2nccc3cc(OC)c(OC)cc23)c(N=NN(C)C)cc1OC` ?
Given back: f

Asked: Likewise for `CN(C)CNc1ncnc2onc(-c3ccccc3)c12` ?
Given back: f

***
Asked: What did the test return for `COc1cccc(/C=C(\C#N)C(=O)c2ccccc2)c1` ?
Given back: f

Asked: Likewise for `N#C/C(=C\Nc1ccccn1)C(=O)c1ccco1` ?
Given back: f

Asked: Likewise for OCC1CC(O)CN2CCc3c([nH]c4ccccc34)C2C1 (centres undefined) ?
Given back: f

Asked: Likewise for CC(C)CC(NC(=O)C(NC(=O)C(N)C(C)O)C(C)C)C(=O)O (stereo not drawn) (H-Thr-Val-Leu-OH; configuration not given here) ?
Given back: f

Asked: Likewise for `COc1ccc(OC)c(NC(=O)c2ccc(Cl)c(Cl)c2)c1` ?
Given back: f

Asked: Likewise for `COC(=O)COc1ccc(Cl)cc1C(=O)O` ?
Given back: f

Asked: Likewise for `CC(=O)Nc1ccccc1/C=C\c1ccccn1` ?
Given back: f

Asked: Likewise for O=NN(CCCl)C(=O)NC1CCC(C(=O)O)CC1 (centres undefined) ?
Given back: f

Asked: Likewise for `CC1=CC(C)(C)N=C2SC(=O)c3nc4ccccc4c(=O)n3N12` ?
Given back: f

----------
Test Summary: NCI Yeast Anticancer Drug Screen. Data for the rad50 strain (AID 155);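 note: 0% = growth of vehicle-only cultures of the same strain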
Measurement Setup: S. cerevisiae rad50 strain growth inhibition; at 50.0 µM; active compounds read high
About 79,000 compounds went through this panel and 15% of them were active in at least one assay; those are over-represented in the sample as a whole.
Quantity Kind: growth inhibition (%)
Give bare numbers, in %.

Consider the reported growth inhibition for these compounds:
Asked: I would be grateful if you could share the reported growth inhibition for `COc1c(NC(=O)c2c(Br)c(Br)c(Br)c(Br)c2C(=O)O)cccc1[N+](=O)[O-]` .
Given back: 1.5

Asked: Likewise for `Nc1c(Cl)cc(C(=O)NC2CC2)cc1Cl` ?
Given back: -13.1

Asked: Likewise for CC1CC/C(=N\O)CCCCC(=O)O1 (configuration not stated) ?
Given back: -3.45

Batch request: growth inhibition per item, same order as input.
1. c1ccc2oc(-c3ccc4c(c3)OCO4)nc2c1
2. O=C(O)c1ccc(/C=N/NC(=S)Nc2cccc3cccnc23)cc1
3. O=C(NC(=O)c1cc2cc(Br)cc(Br)c2oc1=O)Oc1ccccc1
4. CCOC(=O)/C(=C/c1cc(OC)ccc1OC)P(=O)(OCC)OCC
5. COC1OC(COC(=O)c2ccccc2)C(OC(=O)c2ccccc2)C(OC(=O)c2ccccc2)C1OC(=O)c1ccccc1 (configuration not stated)
6. O=C1c2c(/C=C/c3ccc(Cl)c(Cl)c3)nc3ccccc3c2C(=O)N1CCN1CCCCC1
7. N#CC(C#N)=C(N)/C(C#N)=C/c1ccc2[nH]ccc2c1

Given back:
[14.8, 22.1, 24.9, 6.05, -1.3, 89.3, -11]

Batch request: growth inhibition per item, same order as input.
1. O=[N+]([O-])c1ccc(NN=C2CN3CCN(C2)c2ccccc23)c([N+](=O)[O-])c1
2. CCc1cccc(CC)c1NC(=O)CC1SC(N)=NC1=O (configuration not stated)

Given back:
35.4
-4.45

Batch request: growth inhibition per item, same order as input.
1. C=CC(C)(CCC=C(C)C)OC(C)=O (configuration not stated)
2. Cc1ccc(S(=O)(=O)N2CCCSCCN(S(=O)(=O)c3ccc(C)cc3)CCCSCC2)cc1

Given back:
1: 27.6; 2: -0.25

Batch request: growth inhibition per item, same order as input.
1. O=C(O)CSc1ccccc1
2. CC(=O)Nc1ccc(OCc2ccccc2)cc1[N+](=O)[O-]
3. Cc1ccc(N=C=Nc2ccc(C)cc2)cc1
4. CCc1cc2c(cc1COC(C)=O)C(C)(C)CCC2(C)C
5. CC1NC(=O)c2c(-c3ccccc3)nn(-c3ccccc3)c2NC1=O (configuration not stated)

Given back:
[39.5, 20.5, 2.65, -10.8, 1.35]

----------
Test Summary: NCI Yeast Anticancer Drug Screen. Data for the rad50 strain (AID 155);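 note: 0% = growth of vehicle-only cultures of the same strain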
Measurement Setup: S. cerevisiae rad50 strain growth inhibition; at 50.0 µM; active compounds read high
This is part of a sample that, as a whole, favours compounds with a hit. Of some 79,000 tested, about 15% had one in any assay.
Record form. Attribute: growth inhibition. Fill in for each entry.
Answers are plain numbers, in %.

Asked: I would be grateful if you could share the reported growth inhibition for `C(#CC(Sc1ccccc1)=C(Sc1ccccc1)Sc1ccccc1)Sc1ccccc1` .
Given back: 3.1

Asked: Likewise for `CCOC(=O)/C=C(\Nc1ccc(C(c2ccccc2)(c2ccccc2)c2ccccc2)cc1)C(=O)OCC` ?
Given back: 38.2

Asked: Likewise for `O=[N+]([O-])c1cc(F)c(F)cc1F` ?
Given back: -26.9

Asked: Likewise for `O=C1C2CC3C(C2)C13` ?
Given back: -1.55

Asked: Likewise for `ClC(=Nc1cccc(Cl)c1)C(Cl)=Nc1cccc(Cl)c1` ?
Given back: -6.5

Asked: Likewise for `Cc1ccc(S(=O)(=O)CN2CCC(=O)c3ccccc32)cc1` ?
Given back: 20.4

Asked: Likewise for `Cc1cc(C)c(SSc2c(C)cc(C)cc2C)c(C)c1` ?
Given back: -7.8

Asked: Likewise for `Cc1ccc(C2=CSC3=NCCN23)cc1Cl` ?
Given back: -29.9

Batch request: growth inhibition per item, same order as input.
1. Cc1cn(C)c2c1-c1oncc1CC2
2. Cn1c(=O)c2[nH]c(Cl)nc2n(C)c1=O
3. O=COCCO
4. c1cncc(CNc2ncn[nH]2)c1
5. O=CNC(Cc1cnc[nH]1)C(=O)O (stereo not drawn)

Given back:
1. -4.3
2. 9.6
3. -12.6
4. -2.5
5. -14.4

Taken from PubChem BioAssay (NCI).
